Where these numbers come from: patent US4536335A

- TEST_DETAILS: Blood levels in mice after intramuscular administration
- Assay type: in vivo
- COND: mouse, blood, im; mice, i.m. 20 mg/kg, 45 min; read-out: Blood Level 45 minutes after administration
ENDPOINT_LABEL: concentration at 0.75 h
Kindly format the answer as number then unit.

Returns the measured concentration at 0.75 h for the input molecule. Input: C[C@@H](O)[C@H]1C(=O)N2C(C(=O)[O-])=C(SCC[N+]3(C)CCCC3)C[C@H]12 [Example 1]
2100 ng/mL

====

- TEST_DETAILS: Blood levels in mice after intramuscular administration
- Format: in vivo
- COND: mouse, blood, im, 20 mg/kg, intramuscular dose of 20 mg/kg, read-out: Blood T1/2
- Description: Compounds were solubilized in 0.1 M phosphate buffer pH 7. Values are fro a single test; 4 mice used per compound. *t1/2 refers to halflife in minutes **AUC refers to the area under the blood concentrationtime curve Also shown is the urinary recovery in the mice. Compounds were solubilized in 0.1 M phosphate buffer, pH 7. Values based on a single test; 4 mice per compound. *T1/2 refers to halflife in minutes
ENDPOINT_LABEL: half-life
Kindly format the answer as number then unit.

Returns the measured half-life for the input compound. Input: C[C@@H](O)[C@H]1C(=O)N2C(C(=O)[O-])=C(SCC[N+]3(C)CCN(C)CC3)C[C@H]12 [Example 4]
12 min

Returns the measured half-life for the input compound. Input: C[C@@H](O)[C@H]1C(=O)N2C(C(=O)[O-])=C(SCC[N+]3(C)CC[S+]([O-])CC3)C[C@H]12 (single isomer, unassigned) [Ex. 5 comp. A]
7 min

Returns the measured half-life for the input compound. Input: C[C@@H](O)[C@H]1C(=O)N2C(C(=O)[O-])=C(SCC[N+]3(C)CCOCC3)C[C@H]12 [Example 3]
8 min

====

- TEST_DETAILS: Blood levels in mice after intramuscular administration
- Type: in vivo
- COND: mouse, blood, im; mice, i.m. 20 mg/kg, 30 min; read-out: Blood Level 30 minutes after administration
ENDPOINT_LABEL: concentration at 0.5 h (ng/mL)
Your answer is read as ng/mL, so omit the unit and give the number.

Returns the measured concentration at 0.5 h for the input compound. Input: C[C@@H](O)[C@H]1C(=O)N2C(C(=O)[O-])=C(SCC[N+]3(C)CCCC3)C[C@H]12 [Example 1]
5700

====

- Tested on: P. aeruginosa A21213
- TEST_DETAILS: In vitro MIC, tube dilution
- Format: cell-based
- COND: Pseudomonas aeruginosa, A21213, tube dilution, Nutrient Broth, overnight incubation at 37° C.; additional data table
ENDPOINT_LABEL: MIC (µg/mL)
Your answer is read as µg/mL, so omit the unit and give the number.

Returns the measured MIC for the input compound. Input: C[C@@H](O)[C@H]1C(=O)N2C(C(=O)O)=C(SCCN=CN)C[C@H]12 [N-Formimidoyl Thienamycin, N-formimidoyl thienamycin, reference compound]
0.13

Returns the measured MIC for the input compound. Input: C[C@@H](O)[C@H]1C(=O)N2C(C(=O)[O-])=C(SCC[N+]3(C)CC[S+]([O-])CC3)C[C@H]12 (single isomer, unassigned)
32

Returns the measured MIC for the input compound. Input: `C[C@@H](O)[C@H]1C(=O)N2C(C(=O)[O-])=C(SCC[N+]3(C)CCN(C)CC3)C[C@H]12`
1

Returns the measured MIC for the input compound. Input: `C[C@@H](O)[C@H]1C(=O)N2C(C(=O)[O-])=C(SCC[N+]3(C)CCOCC3)C[C@H]12`
8

Returns the measured MIC for the input compound. Input: `C[C@@H](O)[C@H]1C(=O)N2C(C(=O)[O-])=C(SCC[N+]3(C)CCSCC3)C[C@H]12`
8
